- target.system: MAST1, Q9Y2H9
- Sequence (Q9Y2H9 962-1065): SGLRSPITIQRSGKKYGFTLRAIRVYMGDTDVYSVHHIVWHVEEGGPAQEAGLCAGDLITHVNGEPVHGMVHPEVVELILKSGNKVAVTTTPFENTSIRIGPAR
- test.name: holdup assay
- Design: key: below the threshold = too weak to quantify, mostly under pKd 3.1 to 4
- experimental.conditions: plain residues with an end cap or a label only (N-terminal biotin on a linker: ado-ado)
measured.metric: pKd
Output spec: single numeric token, no unit.

ARSAAASNYV [CLDN4, O14493]; 3.66
SFISKKEWYV [NECTIN1, Q15223]; 3.95
ARESQKVSHV [FAM110B, Q8TC76]; 4.13

Lookup: For the binder shown here, KKMLQRRTLL [OR8G1, Q15617] , give the reported pKd.
Found: 4.41
